The reader will find reported melting point values listed item by item below.
metricName: melting point (°C)

{"columns": ["molecule", "metricName", "uom", "result"],
 "data": [
  ["CCCC(=O)Nc1ccc(OCC(O)CNC(C)C)c(C(C)=O)c1 (stereo not given) [acebutolol]", "melting point", "°C", 119],
  ["CCC(=O)c1cc(F)c(O)c(F)c1 [3',5'-difluoro-4'-hydroxypropiophenone]", "melting point", "°C", 130],
  ["C[C@@H](NC(=O)OCc1ccccc1)C(=O)O [N-benzyloxycarbonyl-D-alanine]", "melting point", "°C", 85],
  ["O=C1Nc2ccccc2C[C@H]1c1ccccc1F [3-(2-Fluorophenyl)-1,2,3,4-tetrahydro-2-quinolone]", "melting point", "°C", 191],
  ["OC[C@H]1OC(O)[C@@H](O)[C@@H](O)[C@@H]1O (stereo partly drawn) [D-mannose]", "melting point", "°C", 130],
  ["CCCCC(CC)C(=O)O (stereo not given) [2-ethylhexanoic acid]", "melting point", "°C", -59],
  ["N#CCc1ccc(CC#N)cc1 [p-Xylylene dicyanide]", "melting point", "°C", 96],
  ["O=Cc1cc(B(O)O)ccc1F [4-fluoro-3-formylbenzeneboronic acid]", "melting point", "°C", 240],
  ["Cc1ccccc1-n1c(C)nc2ccccc2c1=O [Methaqualone]", "melting point", "°C", 113],
  ["CCC(C)=O [2-butanone]", "melting point", "°C", -87],
  ["O=[N+]([O-])c1ccccc1CCl [2-nitrobenzyl chloride]", "melting point", "°C", 49],
  ["O=C(O)CCCCBr [5-bromovaleric acid]", "melting point", "°C", 40],
  ["N#Cc1ccc2cc[nH]c2c1 [indole-6-carbonitrile]", "melting point", "°C", 130],
  ["Cc1nc(/C(C#N)=C\\c2ccc(Cl)cc2Cl)sc1/N=N/c1ccc(F)cc1", "melting point", "°C", 139],
  ["C[C@]12CC[C@H]3[C@@H](CCC4=CC(=O)CC[C@@H]43)[C@@H]1CC[C@@H]2O [Nandrolone]", "melting point", "°C", 112],
  ["CCCCCc1ccc(-c2ccc(C#N)cc2)cc1 [4-cyano-4'-n-pentylbiphenyl]", "melting point", "°C", 23],
  ["Cc1c(C)c(C)c2c(c1C)CC2=O [2,3,4,5-Tetramethylbicyclo(4.2.0)octa-1,3,5-trien-7-one]", "melting point", "°C", 161],
  ["C/C=C/CCCCC [trans-2-octene]", "melting point", "°C", -88],
  ["CC(=O)Oc1c(-c2ccccc2)n(C(C)=O)c2cc([N+](=O)[O-])c(/C(Cl)=C/c3ccccc3)cc12", "melting point", "°C", 58],
  ["NC(=O)c1cccc(O)c1 [m-hydroxybenzamide]", "melting point", "°C", 170]
]}

====

Exam item: assign True to entries whose melting point is below 100 °C and False to entries at or above 100 °C. Note that a value of exactly 100 °C receives False.

{"columns": ["compound", "classification"],
 "data": [
  ["c1ccc(C23CCN(CC2)CC3)cc1", "False"],
  ["Cc1ccc(C(=O)OC2CC(C#N)OC2OC(=O)c2ccc(C)cc2)cc1 (centres undefined)", "False"],
  ["CC[C@@H]1CCC[C@@H]1CC [cis-1,2-diethylcyclopentane]", "True"],
  ["CCC(O)C(C)(C)C (centres undefined)", "True"],
  ["O=[N+]([O-])c1cc(C(F)(F)F)cc([N+](=O)[O-])c1Cl", "True"],
  ["Cc1cc(C)nc(N)n1", "False"],
  ["COC(=O)c1cc2ccccc2c(OC(=O)c2ccccc2C)c1C(=O)OC", "False"],
  ["Cc1ccccc1/C=C(\\C#N)c1nc2ccccc2s1 [(E)-2-Benzothiazol-2-yl-3-o-tolyl-acrylonitrile]", "False"]
]}
